Data origin: patent US8937063B2

experiment: Single-dose pharmacokinetic study PO/IP in wild type mice; type: in vivo, C57BL/6 mice; details: C57BL/6; PO, 2240 mg/kg single bolus oral gavage; mouse plasma
readout_name: AUC

So what's the measured AUC for this one? O=C(O)c1ccc(CCN2CCOCC2)nc1 [ARI-001] 1100 µM·h
